# experimental_target: MeCP2-TBL1 interaction (MeCP2-SmBiT / TBL1-LgBiT) (Mus musculus, UniProt Q9QXE7)
# Construct: expressed in transfected cells; crude lysate used as a cell-free assay
# Sequence (Q9QXE7 166-527): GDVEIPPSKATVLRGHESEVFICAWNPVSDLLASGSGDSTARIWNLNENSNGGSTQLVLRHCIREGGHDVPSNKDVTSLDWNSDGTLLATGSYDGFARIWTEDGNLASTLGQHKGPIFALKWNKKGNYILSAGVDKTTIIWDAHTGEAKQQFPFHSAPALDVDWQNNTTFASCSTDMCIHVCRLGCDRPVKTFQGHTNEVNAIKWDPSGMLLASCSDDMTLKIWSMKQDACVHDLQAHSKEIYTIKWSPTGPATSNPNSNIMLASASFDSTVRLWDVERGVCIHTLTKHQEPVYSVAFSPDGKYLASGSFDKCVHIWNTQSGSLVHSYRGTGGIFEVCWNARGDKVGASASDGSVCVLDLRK
# assay_info: MeCP2-TBL1 NanoLuc luciferase complementation assay (cell-free, extracts of transfected HEK293 cells);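 further: each compound tested at 20 µM final concentration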
# Type: binding, human
# details: primary screen of the Asinex library, sheet "Sargen output Asinex library", one well per compound
experimental_readout: Inhibition percent (%)
Respond numerically; units are % and should not be typed.

Here are 6 compounds together with their reported answers.
> print(dat)
                                   compound  result.units  experimental.value
1  COc1cccc2c1OC(C)(C)[C@H]1CC3(CO[C@H]21)CN(Cc1cn(C)cn1)C3             %               -0.50
2  O=C1CCCN1CCOc1cccc(C(=O)N2CCCC(Cc3cnc4ccccc4c3)CC2)c1 (stereo not shown)             %              -12.20
3  CCN(Cc1cnn(-c2ccc(C)cc2)c1)[C@@H]1CCO[C@H](c2ccc(C(=O)N(C)C)cc2)C1             %               -0.31
4  Cc1cc(-c2cnc(C(C)(C)C)nc2C2CCN(Cc3ccc(N4CCCC4)cc3)CC2)on1             %                3.48
5  Cc1cccc(Oc2cncc(C3CCCN(C(=O)c4cccc(-n5cnnc5)c4)C3)n2)c1 (stereo not shown)             %               -3.70
6  Cc1ccc(CC(=O)N2CCCC(c3ncc(C(=O)NCc4ccccc4)c(C)n3)C2)cc1 (stereo not shown)             %               -0.69

Moving on to another compound below.
Q) Entry CN(Cc1ccccc1)[C@@H]1[C@@H](O)[C@H](Oc2ccc(F)c(F)c2)C[C@H]1NC(=O)CC(C)(C)CC(=O)O : reported Inhibition percent = ?
A) 1.42

----------
# experimental_target: MeCP2-TBL1 interaction (MeCP2-SmBiT / TBL1-LgBiT) (Mus musculus)
# Construct: expressed in transfected cells; crude lysate used as a cell-free assay
# assay_info: MeCP2-TBL1 NanoLuc luciferase complementation assay (cell-free, extracts of transfected HEK293 cells);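 further: each compound tested at 20 µM final concentration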
# Assay type: binding, human
# details: primary screen of the Asinex library, sheet "Sargen output Asinex library", one well per compound, Batch Ref. 1
# Description: To facilitate the discovery of inhibitors of the interaction between MeCP2 and TBL1/TBLR1, we set out to devise a simple and scalable biochemical assay for measuring the interaction between these two proteins. We initially explored the possibility of screening compound libraries using a previously established fluorescence polarization assay that depends on purified recombinant TBL1/TBLR1[26]. […]
experimental_readout: Inhibition percent (%)
Respond numerically; units are % and should not be typed.

Here are 2 molecules together with their reported answers.
> print(dat)
                                   molecule  experimental.readout  experimental.value
1  COc1cc2c(cc1[C@H]1C[C@@H](NC(C)=O)CC3(CCCCC3)O1)OCCCO2 [BDH_33665894]    Inhibition percent                2.60
2  Cc1c(C(=O)N2CCC(C3(C)CCCCN(CCc4ccccc4)C3=O)CC2)cnn1C (stereo not drawn) [BDE_25215150]    Inhibition percent               -0.77

Q) Entry CC(=O)N1CCC(Cc2cc(-c3ccccc3)no2)(C(=O)N2CCC(C(C)(C)C)CC2)C1 (stereo not drawn) [BDF_23076577] : reported Inhibition percent = ?
A) 2.56

Q) Okay, and Cc1cc(Oc2ccccc2F)nc(C2CCN(C(=O)c3cccc(-c4cncnc4)n3)CC2)n1 [BDH_32368986] ?
A) 1.94

Q) Okay, and O=C(CC1CCCCC1)N1CCOC(c2nccnc2-c2cccc(C(F)(F)F)c2)C1 (stereo not drawn) [BDF_25939482] ?
A) 0.68

Q) Okay, and CC1(Cc2ccc(F)cc2)Cc2cc(C(=O)N(CCCc3ccc(Cl)cc3)CC(=O)O)ccc2O1 (stereo not drawn) [BDG_34127624] ?
A) 0.89

Q) Okay, and Cc1ccc(Oc2cccc(C3CN(C(=O)c4cccc(Cn5ccnc5)c4)CCO3)n2)cc1 (stereo not drawn) [BDH_32360064] ?
A) 8.15

Q) Okay, and CC(=O)N[C@@H](Cc1c[nH]c2ccccc12)C(=O)N1CC[C@H]2O[C@H]3c4cc(Cl)ccc4OC(C)(C)[C@@H]3C[C@H]2C1 [BDG_33905586] ?
A) -0.13

Q) Okay, and CC(C)=CCC[C@]1(C)Oc2cc(OCC(N)=O)ccc2[C@H]2OC[C@@]3(CCCN(C(=O)OC(C)(C)C)C3)C[C@@H]21 [BDH_33958782] ?
A) 7.79

Q) Okay, and Cc1c[nH]c(-c2cncc(CC3CCN(C(=O)c4ccc(Cc5ccccc5F)nc4)CC3)n2)n1 [BDH_33521764] ?
A) 0.73

Q) Okay, and CCN(CC)C(=O)CN1CCOC(c2c(C(=O)N3CCOCC3)sc3ncccc23)C1 (stereo not drawn) [BDF_24025276] ?
A) -4.29

Q) Okay, and COc1ccccc1Cc1cccc(C2CCCN2C(=O)Cc2c[nH]c3ccccc23)n1 (stereo not drawn) [BDD_27856210] ?
A) 9.99

Q) Okay, and COc1cccc(CN2CCC3(C/C=C/COc4ccccc4C(=O)NCCNC3=O)CC2)c1F [BDH_33701964] ?
A) -0.89

Q) Okay, and CC(C)=CCC[C@]1(C)Oc2c(OCCOCCO)cccc2[C@H]2O[C@H]3CCN(C(=O)OC(C)(C)C)C[C@@H]3C[C@@H]21 [BDH_33957239] ?
A) 4.83

Q) Okay, and C[C@@]12C[C@H]3[C@H](Cc4ccccc4)N[C@@H]1CCCC[C@@H]2N3C(=O)COc1ccccc1 [BDG_33505297] ?
A) -0.84

Q) Okay, and O=C(c1cccc(-c2cncnc2)n1)N1CCCCC1c1ncc(Cc2cccc(F)c2)o1 (stereo not drawn) [BDE_33514471] ?
A) -1.40

Q) Okay, and O=C1CCC[C@]2(CN(Cc3cccc(-c4ccccc4F)c3)C[C@H]2c2ccc(F)c(F)c2)N1 [BDD_23570819] ?
A) 11.60

Q) Okay, and COc1ccc(NC(=O)CN2CC[C@@]3(NC(C)=O)CN(C(C)=O)[C@H](c4ccccc4)[C@H]3C2)cc1 [BDH_33626570] ?
A) -3.55

Q) Okay, and Cn1c(=O)c2c(ncn2CCC(=O)N2[C@H](Cc3ccccc3)C[C@]3(C)NC(=O)CCC[C@H]23)n(C)c1=O [BDH_33628646] ?
A) 0.10

----------
# Test system: PRKACA-PRKAR2A interaction (SmBiT-PRKACA / LgBiT-PRKAR2A), protein kinase A
# Set-up: NanoLuc complementation counter-screen in cell extract, PRKACA with PRKAR2A, loss of luminescence, detects NanoLuc interference
# details: counter-screen for NanoLuc interference; 0.5 h, 20 µM; inhibitor
Where a name gives a salt, the structure may show the parent alone.
experimental_readout: Inh (PKA) (%)
Respond numerically; units are % and should not be typed.

> print(dat)
                                   compound  experimental.readout  experimental.value
1  O=C(NOCC1CC1)c1ccc(F)c(F)c1Nc1ccc(I)cc1Cl [UM0130972:02, PD184352 (CI-1040)]             Inh (PKA)               70.13
2  Oc1cc(CNC(=S)/C=C/c2cc(O)c(O)c(Br)c2)cc(O)c1O [UM0142805:01, NT157]             Inh (PKA)               30.97
3  COc1ccc(-c2ccc3c(N4CCOCC4)nc(N4C[C@@H](C)O[C@@H](C)C4)nc3n2)cc1CO [UM0141868:01, KU-0063794]             Inh (PKA)               1.476

Q) Entry CN(C)CCC=C1c2ccccc2CCc2ccccc21 [UM0118081:03, Amitriptyline HCl] : reported Inh (PKA) = ?
A) 6.05

Taken from paper PMC9995496.
